Just for reference, ChEMBL document CHEMBL5729211 is where these values come from.

- Target Entity: Amine oxidase [copper-containing] 3 (Homo sapiens, UniProt Q16853)
- Sequence (Q16853 whole entry): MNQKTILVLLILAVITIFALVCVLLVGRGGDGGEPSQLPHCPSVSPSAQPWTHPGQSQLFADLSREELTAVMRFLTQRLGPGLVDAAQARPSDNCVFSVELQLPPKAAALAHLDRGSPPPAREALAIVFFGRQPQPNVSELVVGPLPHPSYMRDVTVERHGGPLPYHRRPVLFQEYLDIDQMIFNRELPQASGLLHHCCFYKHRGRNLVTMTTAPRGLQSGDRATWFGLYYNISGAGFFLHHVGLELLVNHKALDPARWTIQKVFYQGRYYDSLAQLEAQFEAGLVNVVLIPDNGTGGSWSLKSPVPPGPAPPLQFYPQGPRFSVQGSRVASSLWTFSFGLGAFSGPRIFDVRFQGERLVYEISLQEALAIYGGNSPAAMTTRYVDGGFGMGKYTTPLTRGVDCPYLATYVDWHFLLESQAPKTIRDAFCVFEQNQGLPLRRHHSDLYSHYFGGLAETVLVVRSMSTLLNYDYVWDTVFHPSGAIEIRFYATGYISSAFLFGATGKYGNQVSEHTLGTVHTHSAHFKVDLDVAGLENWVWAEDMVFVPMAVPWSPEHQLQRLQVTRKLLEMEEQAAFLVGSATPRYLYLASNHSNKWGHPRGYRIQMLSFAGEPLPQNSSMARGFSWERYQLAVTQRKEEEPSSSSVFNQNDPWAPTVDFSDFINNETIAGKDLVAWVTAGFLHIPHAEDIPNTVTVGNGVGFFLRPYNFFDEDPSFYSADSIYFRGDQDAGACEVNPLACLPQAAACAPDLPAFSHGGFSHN
- Protocol Notes: Biological Assay: 1. Determination of Inhibitory Activity of Human Recombinant SSAO/VAP-1Test purpose: The following methods can be used to determine the inhibitory activity of the compounds described in the examples of the invention for human recombinant SSAO/VAP-1.Test Materials:Human recombinant SSAO/VAP-1 (VAP-1, human) purchased from Sigma, Cat. No. SRP6241;Amplex® Red Monoamine Oxidase Assay Kit purchased from Invitrogen, Cat. No. A12214;384-Well plate purchased from Corning, Cat. No. 6005174;Amplex® Red Hydrogen PeroxidePeroxidase Assay Kit purchased from Invitrogen, Cat. No. A22188.Benzylamine hydrochloride purchased from Sigma, Cat. No. B5136-25G;DMSO (Dimethyl Sulfoxide) purchased from Sigma, Cat. No. D2650-100ML;Test Method:The test compound was dissolved in DMSO and diluted to 10 concentrations in 4-fold serial dilution. In 384 well plates, 25 μL of human recombinant SSAO/VAP-1 (1.6 μg/ml) was added to each well. 100 nL of test compounds with different concentrations were added to each well containing human recombinant SSAO/VAP-1 and incubated at room temperature for 30 min. After 30 min incubation, 25 μl of Amplex® red monoamine oxidase assay kit (containing a reaction mixture of 200 μm Amplex Red reagent, 1 U/ml HRP and 1 mm benzylamine hydrochloride) was added to the corresponding well, and incubated at room temperature and dark for 60 min. After 60 min, the relative fluorescence unit (RFU) was read by using PerkinElmer's Envision at 530-560 nm excitation and 590 nm emission. The curve was drawn by using the graph pad prism 5 software, and the IC50 value was calculated. The results were shown in table 1, wherein the compound listed in table 1 is the compound in the preparation examples with the same compound number:
Measured Attribute: IC50 (nM)

NC/C(=C\F)COc1ccc2c(c1)CCN(CC1CCOCC1)C2=O = 0.22
NC/C(=C/F)COc1ccc2c(c1)CCN(c1ccccn1)C2=O = 0.77
COc1ncc(N2CCc3cc(OC/C(=C/F)CN)ccc3C2=O)cn1 = 1.44
